assay: in vitro; details: human, BJ fibroblasts
Outcome Measure: viability at 200 μM (%)

OO [hydrogen peroxide] : 74
